The reported measurements were obtained from patent US10975037B2.

# System: human RORγt ligand binding domain (RORγt LBD) (Homo sapiens (Human), UniProt P51449)
# Sequence (P51449 other isoform, or with tags, fused parts or gaps): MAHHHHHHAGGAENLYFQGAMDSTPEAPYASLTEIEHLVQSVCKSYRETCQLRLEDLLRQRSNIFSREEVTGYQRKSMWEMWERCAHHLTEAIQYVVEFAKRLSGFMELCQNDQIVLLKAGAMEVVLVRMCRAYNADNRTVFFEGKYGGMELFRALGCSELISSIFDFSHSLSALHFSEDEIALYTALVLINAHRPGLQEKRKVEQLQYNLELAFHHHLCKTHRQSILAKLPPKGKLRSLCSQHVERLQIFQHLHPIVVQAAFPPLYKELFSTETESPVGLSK
# Assay Method Text: RORγt ThermoFluor® assay (thermal shift binding)
# Applied Conditions: read-out: ThermoFluor® Assay, Kd
pKd: −log10 of the molar value.
Endpoint Label: pKd

Given the compound CCn1nc(C(=O)NC[C@H]2CC[C@H](S(=O)(=O)NC)CC2)c(Cl)c1-c1ccc(CC(C)(C)C(F)(F)F)cc1OC(F)F , what is its reported pKd?
10.00

I = CCn1nc(C(=O)NC[C@]2(O)CC[C@@H](S(C)(=O)=O)CC2)c(Cl)c1-c1ccc(CC(C)(C)CC(F)(F)F)cc1OC(F)F
II = CCn1nc(C(=O)NC[C@H]2CC[C@H](S(C)(=O)=O)CC2)c(Cl)c1-c1ccc(N[C@H](C)C(F)(F)F)cc1C
// pick larger pKd from pair: I vs II Use the label to indicate which entry you chose.
I
(I: 9.29, II: 7.89)

a = CCC(=O)NS(=O)(=O)[C@H]1CC[C@H](CNC(=O)c2nn(CC)c(-c3ccc(CC(C)(C)C(F)(F)F)cc3OC(F)F)c2Cl)CC1
b = CCn1nc(C(=O)NC[C@H]2CC[C@H](S(C)(=O)=O)CC2)c(Cl)c1-c1ccc(C(O)(C(F)(F)F)C(F)(F)F)cc1OC(F)F
c = CCn1nc(C(=O)NC[C@]2(O)CC[C@@H](S(C)(=O)=O)CC2)c(Cl)c1-c1ccc(CCCC(F)(F)F)cc1OC
d = CCn1nc(C(=O)NC[C@H]2CC[C@H](S(C)(=O)=O)CC2)c(Cl)c1-c1ccc(CCCC(F)(F)F)cc1OC(F)F
e = CCn1nc(C(=O)NCC2(N)CCC(S(C)(=O)=O)CC2)c(Cl)c1-c1ccc(CC(C)C(F)(F)F)cc1OC (stereo not drawn)
# rank_down: sort by pKd, max first Reply: labels, ordered per the request.
b, d, a, c, e
(b: 9.82, d: 9.55, a: 9.14, c: 8.29, e: 6.85)

I = CCn1nc(C(=O)NC[C@]2(O)CC[C@@H](S(C)(=O)=O)CC2)c(Cl)c1-c1ccc(CCCC(F)(F)F)cc1OC(F)F
II = CCn1nc(C(=O)NC[C@H]2CC[C@H](S(C)(=O)=O)CC2)c(Cl)c1-c1c(F)cc(N[C@H](C)C(F)(F)F)cc1F
III = CCn1nc(C(=O)NC[C@]2(O)CC[C@@H](S(C)(=O)=O)CC2)c(Cl)c1-c1ccc(CC(C)(C)C(F)(F)F)cc1C(F)(F)F
IV = CCn1nc(C(=O)NC[C@H]2CC[C@H](S(C)(=O)=O)CC2)c(Cl)c1-c1ccc(N2CC(C(F)(F)F)C2)cc1OC
V = CCn1nc(C(=O)NC[C@]2(O)CC[C@@H](S(C)(=O)=O)CC2)c(Cl)c1-c1ccc(CC(C)(C)C(F)(F)F)cc1F
I would appreciate it if you could sort these 5 compounds by pKd, starting from the smallest number. Reply: labels, ordered per the request.
IV, II, V, I, III
(IV: 7.40, II: 8.27, V: 8.62, I: 8.92, III: 9.20)

====

# System: full-length human RORγt (Homo sapiens (Human), UniProt P51449)
# Sequence (P51449 other isoform, or with tags, fused parts or gaps): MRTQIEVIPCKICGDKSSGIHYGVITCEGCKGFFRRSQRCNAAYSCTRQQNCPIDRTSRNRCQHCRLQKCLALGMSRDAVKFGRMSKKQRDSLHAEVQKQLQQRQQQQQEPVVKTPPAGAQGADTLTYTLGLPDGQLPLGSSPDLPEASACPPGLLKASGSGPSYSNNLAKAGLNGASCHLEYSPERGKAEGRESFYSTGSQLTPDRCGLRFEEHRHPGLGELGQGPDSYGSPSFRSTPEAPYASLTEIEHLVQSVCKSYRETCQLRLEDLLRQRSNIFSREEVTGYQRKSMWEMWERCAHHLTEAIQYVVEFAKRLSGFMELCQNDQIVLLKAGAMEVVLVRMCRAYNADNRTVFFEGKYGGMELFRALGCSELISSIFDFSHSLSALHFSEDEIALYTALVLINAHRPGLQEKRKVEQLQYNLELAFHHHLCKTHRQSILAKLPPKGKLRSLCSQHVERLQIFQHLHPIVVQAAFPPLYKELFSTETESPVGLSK
# Assay Method Text: RORγt (full-length human) reporter assay, conditions A or B, HEK293T cells
# Type: cell-based
# Applied Conditions: HEK-293T, read-out: RORγt (FL) Reporter Assay A or B, % inhibition
Endpoint Label: inhibition at 2 µM (%)

Given the compound CCn1nc(C(=O)NC[C@]2(O)CC[C@@H](S(C)(=O)=O)CC2)c(Cl)c1-c1ccc(CC(C)(C)C(F)(F)F)cc1OC(F)F , what is its reported inhibition at 2 µM?
99

Given the compound CCn1nc(C(=O)NC[C@]2(C#N)CC[C@@H](S(C)(=O)=O)CC2)c(Cl)c1-c1ccc(N[C@H](C)C(F)(F)F)cc1OC , what is its reported inhibition at 2 µM?
96

1 = CCn1nc(C(=O)NC[C@H]2CC[C@H](S(C)(=O)=O)CC2)c(Cl)c1-c1ccc(CCC(F)(F)F)cc1OC(F)(F)F
2 = CCOc1cc(N[C@H](C)C(F)(F)F)ccc1-c1c(Cl)c(C(=O)NC[C@H]2CC[C@H](S(C)(=O)=O)CC2)nn1CC
// pick larger inhibition at 2 µM from pair: 1 vs 2 Use the label to indicate which entry you chose.
2

====

# System: human RORγt ligand binding domain (RORγt LBD) (Homo sapiens (Human), UniProt P51449)
# Assay Method Text: RORγt ThermoFluor® assay (thermal shift binding)
# Applied Conditions: read-out: ThermoFluor® Assay, Kd
Endpoint Label: Kd (nM)

State its Kd on human RORγt ligand binding domain (RORγt LBD) (Homo sapiens (Human), UniProt P51449): CCn1nc(C(=O)NC[C@H]2CC[C@@H](S(C)(=O)=O)CC2)c(Cl)c1-c1ccc(N[C@H](C)C(F)(F)F)cc1Cl
230

State its Kd on human RORγt ligand binding domain (RORγt LBD) (Homo sapiens (Human), UniProt P51449): CCn1nc(C(=O)NC[C@H]2CC[C@H](S(C)(=O)=O)CC2)c(Cl)c1-c1c(F)cc(CC(C)C(F)(F)F)cc1F (stereo partly shown)
2

State its Kd on human RORγt ligand binding domain (RORγt LBD) (Homo sapiens (Human), UniProt P51449): CCn1nc(C(=O)NC[C@]2(O)CC[C@@H](S(C)(=O)=O)CC2)c(C)c1-c1ccc(CC(C)(C)C(F)(F)F)cc1OC(F)F
0.37

State its Kd on human RORγt ligand binding domain (RORγt LBD) (Homo sapiens (Human), UniProt P51449): CCn1nc(C(=O)NC[C@]2(O)CC[C@@H](S(C)(=O)=O)CC2)c(Cl)c1-c1ccc(N[C@H](C)C(F)(F)F)cc1OC
21

State its Kd on human RORγt ligand binding domain (RORγt LBD) (Homo sapiens (Human), UniProt P51449): CCn1nc(C(=O)NC[C@H]2CC[C@H](S(C)(=O)=O)CC2)c(F)c1-c1ccc(N[C@H](C)C(F)(F)F)cc1OC
17

1 = CCn1nc(C(=O)NC[C@]2(O)CC[C@@H](S(C)(=O)=O)CC2)c(Cl)c1-c1ccc(CC(C)(C)C(F)(F)F)cc1C
2 = CCc1c(C(=O)NC[C@H]2CC[C@H](S(C)(=O)=O)CC2)nn(CC)c1-c1ccc(N[C@H](C)C(F)(F)F)cc1OC
3 = CCn1nc(C(=O)NC[C@]2(O)CC[C@@H](S(C)(=O)=O)CC2)c(Cl)c1-c1ccc(CC(C)(C)C(F)(F)F)cc1C#N
4 = CCn1nc(C(=O)NC[C@H]2CC[C@H](S(C)(=O)=O)CC2)c(Cl)c1-c1ccc(CCC(F)(F)F)cc1OC(F)(F)F
# rank_down: sort by Kd, max first Reply: labels, ordered per the request.
3, 2, 4, 1

a = COc1cc(N[C@H](C)C(F)(F)F)ccc1-c1c(Cl)c(C(=O)NC[C@]2(O)CC[C@@H](S(C)(=O)=O)CC2)nn1CC(C)C
b = CCn1nc(C(=O)NC[C@]2(O)CC[C@@H](S(C)(=O)=O)CC2)c(Cl)c1-c1ccc(CCC(F)(F)F)cc1OC(F)F
c = CCn1nc(C(=O)NC[C@H]2CC[C@H](S(C)(=O)=O)CC2)c(C#N)c1-c1ccc(CCC(F)(F)F)cc1OC
I would appreciate it if you could sort these 3 compounds by Kd, starting from the smallest number. Reply: labels, ordered per the request.
b, a, c

I = CCn1nc(C(=O)NC[C@]2(C#N)CC[C@@H](S(C)(=O)=O)CC2)c(Cl)c1-c1ccc(CC(C)(C)C(F)(F)F)cc1OC(F)F
II = CCn1nc(C(=O)NC[C@]2(O)CC[C@@H](S(C)(=O)=O)CC2)c(C#N)c1-c1ccc(CCC(F)(F)F)cc1OC
III = CCn1nc(C(=O)NC[C@]2(C#N)CC[C@H](S(C)(=O)=O)CC2)c(Cl)c1-c1ccc(N[C@H](C)C(F)(F)F)cc1OC
IV = CCn1nc(C(=O)NC[C@]2(O)CC[C@@H](S(C)(=O)=O)CC2)c(C)c1-c1ccc(CCCC(F)(F)F)cc1OC
V = CCn1nc(C(=O)NC[C@H]2CC[C@H](S(C)(=O)=O)CC2)c(Cl)c1-c1ccc(CC(C)(C)C(F)(F)F)cc1C(F)(F)F
# rank_down: sort by Kd, max first Reply: labels, ordered per the request.
III, II, IV, V, I
(III: 450 nM, II: 170 nM, IV: 11 nM, V: 0.48 nM, I: 0.2 nM)

P = Cc1c(C(=O)NC[C@]2(O)CC[C@@H](S(C)(=O)=O)CC2)nn(C)c1-c1ccc(CC(C)(C)C(F)(F)F)cc1OC(F)F
Q = CCn1nc(C(=O)NC[C@]2(O)CC[C@H](S(C)(=O)=O)CC2)c(Cl)c1-c1ccc(N[C@H](C)C(F)(F)F)cc1OC
R = CCn1nc(C(=O)NC[C@H]2CC[C@H](S(C)(=O)=O)CC2)c(C)c1-c1ccc(CCCC(F)(F)F)cc1OC
I would appreciate it if you could sort these 3 compounds by Kd, starting from the smallest number. Reply: labels, ordered per the request.
P, R, Q
